- Test system: D54 ERlucT glycosylation luciferase reporter, luminescence, 24 h
- measurement-notes: N-linked glycosylation inhibitors, luciferase reporter, dose response, D54 ERlucT cells, luminescence, cherry-picks (AID 624491);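 further: signal gain reflects blocked N-linked glycosylation of a luciferase reporter; actives raise luciferase signal so AC26 marks activators of the reporter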
recorded-endpoint: AC26

Some solved entries appear below for comparison.
Let me know recorded AC26 for Cc1ccc2nc(-c3ccc(SCC(=O)Nc4nnc(C)s4)nc3)[nH]c2c1 , thanks.
4860 nM

Let me know recorded AC26 for COc1cc(OC)cc(C(=O)N2CC(=O)Nc3ccccc32)c1 , thanks.
565 nM

Let me know recorded AC26 for CCNCCNc1ccc([N+](=O)[O-])c2cccnc12 , thanks.
7750 nM

Let me know recorded AC26 for CCc1ccc(/C=N/NC(=O)c2nnn(-c3nonc3N)c2C(C)C)cc1 , thanks.
6420 nM

Let me know recorded AC26 for COc1ccccc1C1CC(=O)Nc2cc3c(cc21)OCCO3 (configuration not stated) , thanks.
10500 nM

Let me know recorded AC26 for COCCNC(=O)c1cc(-c2ccccc2OC)on1 , thanks.
9620 nM

Let me know recorded AC26 for CC(=O)c1ccc(Nc2nc(-c3sc(C)nc3C)cs2)cc1 , thanks.
40.5 nM

Let me know recorded AC26 for COc1cccc(-c2cc3nc(-c4ccccc4)cc(=O)n3[nH]2)c1 , thanks.
7070 nM

For every item below, please supply its AC26.
1. Cc1cc(C)c2c(N)c3cccc(C)c3nc2n1
2. C[C@@]12C(=O)Nc3ccc(F)cc3C(=O)N1[C@H]1c3cc(Cl)ccc3OC[C@@H]1[C@@H]2c1ccccc1
3. COc1ccc(Nc2nc(C)nc3sc4c(c23)CCC4)cc1O
4. CCN(CC)c1ccc(/C=N/NC(=O)c2cnccn2)cc1
5. Cn1c(=O)n(C)c2cc(C(=O)Nc3ccc4c(c3)OCO4)ccc21
6. CCC(CC)Nc1ccc(C(CC(N)=O)NC(=O)Cc2ccc(Br)cc2)cc1[N+](=O)[O-] (configuration not stated)

1: 478 nM; 2: 1070 nM; 3: 11400 nM; 4: 780 nM; 5: 1740 nM; 6: 4130 nM

For every item below, please supply its AC26.
1. Cc1ccc2nc3c(cc(C(N)=S)c(=N)n3CCCOC(C)C)c(=O)n2c1
2. Cc1cc2c(cc(C(=O)OCC(=O)NCc3ccco3)n2C)s1
3. COc1ccc(C(=O)c2cc(OC)c(OC)c(OC)c2)cc1OC

1: 1140 nM; 2: 198 nM; 3: 1250 nM

For every item below, please supply its AC26.
1. Cc1ccc(S(=O)(=O)Nc2ccc3c(c2)n(C)c(=O)n3C)cc1
2. O=C(/C=C/c1ccc([N+](=O)[O-])cc1)/C=C/c1ccco1
3. Cc1ccc2cc(CN(CCCN(C)C)C(=O)NCc3ccccc3)c(=O)[nH]c2c1C

["1460 nM", "1140 nM", "69.1 nM"]

For every item below, please supply its AC26.
1. Nc1c(C(=O)Nc2ccc(S(=O)(=O)N3CCCC3)cc2)sc2nc3ccc(OC(F)(F)F)cc3cc12
2. CC(=O)c1c(C)[nH]c(C(=O)Nc2nccs2)c1C
3. O=c1c2c3c(sc2ncn1/N=C/c1ccc([N+](=O)[O-])o1)CCCC3
4. COc1ccc(C2C(C(=O)Nc3cc(OC)c(OC)c(OC)c3)c3ccccc3C(=O)N2C)cc1 (configuration not stated)

1160 nM
2200 nM
447 nM
5180 nM

Data origin: PubChem BioAssay AID624491
